Provenance of the data: patent US10421751B2

Below, each of the molecules is paired with its reported pEC50 value.
# Target system: Gal4-RORγ-LBD (Homo sapiens)
# Construct: pcDNA3.1neo plasmid, co-transfected with pGL4.31 Gal4-luciferase reporter
# Test description: Gal4-RORγ Luciferase Reporter Assay in HEK-293T Cells
# Cond: HEK-293 cells, in presence of 2 μM ursolic acid, overnight incubation; read-out: Ga14-RORγ Assay EC50
pEC50: −log10 of the molar value.
Readout: pEC50

Smiles code	Observed
C/C(=C\c1ccc2c(c1)N(S(=O)(=O)c1cccc(C(F)(F)F)c1)C[C@H](CCc1nn[nH]n1)O2)c1c(F)cccc1Cl	5.30 to 7.00
CCOc1ncc(C(F)(F)F)cc1S(=O)(=O)N1C[C@H](CCc2n[nH]c(=O)o2)Oc2ccc(/C=C(\C)c3c(F)cccc3Cl)cc21	5.30 to 7.00
C/C(=C\c1ccc2c(c1)N(S(=O)(=O)c1cccc(C(F)(F)F)c1)C[C@H](CCn1ccnc1)O2)c1c(F)cccc1Cl	5.30 to 7.00
C/C(=C\c1ccc2c(c1)N(S(=O)(=O)c1cccc(C(F)(F)F)c1)C[C@H](CCCn1ccnn1)O2)c1c(F)cccc1Cl	5.30 to 7.00
C/C(=C\c1ccc2c(c1)N(S(=O)(=O)c1cccc(C(F)(F)F)c1)C[C@H](CCCn1ccnc1)O2)c1c(F)cccc1Cl	5.30 to 7.00
C/C(=C\c1ccc2c(c1)N(S(=O)(=O)c1ccc(F)c(OC(F)F)c1)C[C@H](CCc1n[nH]c(=O)o1)O2)c1c(F)cccc1Cl	5.30 to 7.00
CCOc1ncc(C(F)(F)F)cc1S(=O)(=O)N1C[C@H](CCc2n[nH]c(=O)o2)Oc2ccc(/C=C/c3c(Cl)cccc3C(F)(F)F)cc21	5.30 to 7.00
C/C(=C\c1ccc2c(c1)N(S(=O)(=O)c1cccc(C(F)(F)F)c1)C[C@H](CCn1ccnn1)O2)c1c(F)cccc1Cl	5.30 to 7.00
CCOc1ncc(Cl)cc1S(=O)(=O)N1C[C@H](CCc2n[nH]c(=O)o2)Oc2ccc(/C=C(\C)c3c(F)cccc3Cl)cc21	5.30 to 7.00
O=c1[nH]nc(CC[C@H]2CN(S(=O)(=O)c3cccc(C(F)(F)F)c3)c3cc(/C=C/c4ncccc4C(F)(F)F)ccc3O2)o1	5.30 to 7.00
COc1cc(S(=O)(=O)N2C[C@H](CCOc3noc(=O)[nH]3)Oc3ccc(/C=C(\C)c4c(F)cccc4Cl)cc32)ccc1F	5.30 to 7.00
C/C(=C\c1ccc2c(c1)N(S(=O)(=O)c1cccc(C(F)(F)F)c1)C[C@H](Cc1n[nH]c(=O)o1)O2)c1c(F)cccc1Cl	5.30 to 7.00
CCn1cc(S(=O)(=O)N2C[C@H](CCc3n[nH]c(=O)o3)Oc3ccc(/C=C(\C)c4c(F)cccc4Cl)cc32)c(OCCO)n1	5.30 to 7.00
C/C(=C\c1ccc2c(c1)N(S(=O)(=O)c1cccc(C(F)(F)F)c1)C[C@H](CCc1noc(=O)[nH]1)O2)c1c(F)cccc1Cl	5.30 to 7.00

====

# Target system: RORγ-LBD (Homo sapiens, UniProt P51449)
# Construct: used as diluted lysate
# Sequence (P51449 269-508 limits assumed): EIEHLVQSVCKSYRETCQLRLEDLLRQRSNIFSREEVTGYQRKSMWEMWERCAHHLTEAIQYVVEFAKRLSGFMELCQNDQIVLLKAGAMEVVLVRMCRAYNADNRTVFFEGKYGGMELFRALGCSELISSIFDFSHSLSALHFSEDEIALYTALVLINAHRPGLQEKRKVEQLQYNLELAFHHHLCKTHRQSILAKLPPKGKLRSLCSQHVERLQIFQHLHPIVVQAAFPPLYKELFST
# Test description: RORγ-Ligand Binding Domain (LBD) TR-FRET Assay
# Cond: in presence of 2 μM RORγ antagonist ursolic acid; SRC1 coactivator peptide
Readout: EC50

Smiles code	Readout	Observed
COc1cc(S(=O)(=O)N2C[C@H](CCOc3noc(=O)[nH]3)Oc3ccc(/C=C(\C)c4c(F)cccc4Cl)cc32)ccc1F	EC50	< 100 nM
C/C(=C\c1ccc2c(c1)N(S(=O)(=O)c1cccc(C(F)(F)F)c1)C[C@H](CCCn1cccn1)O2)c1c(F)cccc1Cl	EC50	< 100 nM
C/C(=C\c1ccc2c(c1)N(S(=O)(=O)c1cccc(C(F)(F)F)c1)C[C@H](Cc1n[nH]c(=O)o1)O2)c1c(F)cccc1Cl	EC50	< 100 nM
C/C(=C\c1ccc2c(c1)N(S(=O)(=O)c1cccc(C(F)(F)F)c1)C[C@H](CCCc1noc(=O)[nH]1)O2)c1c(F)cccc1Cl	EC50	100 to 5000 nM
C/C(=C\c1ccc2c(c1)N(S(=O)(=O)c1cccc(C(F)(F)F)c1)[C@H](C)[C@H](Cn1ccnc1)C2)c1c(F)cccc1Cl	EC50	< 100 nM
C/C(=C\c1ccc2c(c1)N(S(=O)(=O)c1cccc(C(F)(F)F)c1)C[C@H](CCCc1nn[nH]n1)O2)c1c(F)cccc1Cl	EC50	100 to 5000 nM
CCOc1nn(CC)cc1S(=O)(=O)N1C[C@H](CCc2n[nH]c(=O)o2)Oc2ccc(/C=C(\C)c3c(F)cccc3Cl)cc21	EC50	< 100 nM
CCn1cc(S(=O)(=O)N2C[C@H](CCc3n[nH]c(=O)o3)Oc3ccc(/C=C/c4c(Cl)cccc4C(F)(F)F)cc32)c(OCCO)n1	EC50	< 100 nM
C/C(=C\c1ccc2c(c1)N(S(=O)(=O)c1cccc(C(F)(F)F)c1)C[C@H](CCc1nn[nH]n1)O2)c1c(F)cccc1Cl	EC50	< 100 nM
C[C@@H]1[C@H](n2cc[nH]c2=O)Cc2ccc(/C=C/c3c(F)cccc3C(F)(F)F)cc2N1S(=O)(=O)c1cccc(C(F)(F)F)c1	EC50	100 to 5000 nM
CCOc1nn(CC)cc1S(=O)(=O)N1C[C@H](CCOc2noc(=O)[nH]2)Oc2ccc(/C=C(\C)c3c(F)cccc3Cl)cc21	EC50	< 100 nM
C/C(=C\c1ccc2c(c1)N(S(=O)(=O)c1cccc(C(F)(F)F)c1)C[C@H](CCn1cc(C(=O)O)nn1)O2)c1c(F)cccc1Cl	EC50	< 100 nM
C/C(=C\c1ccc2c(c1)N(S(=O)(=O)c1cccc(C(F)(F)F)c1)C[C@H](CCn1ccnc1)O2)c1c(F)cccc1Cl	EC50	< 100 nM
CCOc1ncc(C(F)(F)F)cc1S(=O)(=O)N1C[C@H](CCc2n[nH]c(=O)o2)Oc2ccc(/C=C/c3c(Cl)cccc3C(F)(F)F)cc21	EC50	100 to 5000 nM
